# target-desc: 5-hydroxytryptamine receptor 2A (Homo sapiens) (UniProt P28223)
# Sequence (P28223 whole entry, looked up): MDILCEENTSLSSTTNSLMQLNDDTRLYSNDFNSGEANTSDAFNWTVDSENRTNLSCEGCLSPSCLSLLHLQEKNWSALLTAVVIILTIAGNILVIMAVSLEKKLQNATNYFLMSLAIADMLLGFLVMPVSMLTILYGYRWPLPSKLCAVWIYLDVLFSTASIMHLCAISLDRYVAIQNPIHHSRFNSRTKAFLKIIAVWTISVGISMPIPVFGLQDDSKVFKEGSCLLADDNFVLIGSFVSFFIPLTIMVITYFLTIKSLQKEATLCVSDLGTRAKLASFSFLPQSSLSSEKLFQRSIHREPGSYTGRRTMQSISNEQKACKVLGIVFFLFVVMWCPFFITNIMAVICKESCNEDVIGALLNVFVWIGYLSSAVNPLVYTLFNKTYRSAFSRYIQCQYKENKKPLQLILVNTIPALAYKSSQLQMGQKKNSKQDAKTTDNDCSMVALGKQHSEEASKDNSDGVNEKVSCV
# assay-info: 5-hydroxytryptamine receptor 2A (HTR2A) small molecule antagonists, cell-based qHTS assay (AID 1963586); note: nearly all actives have a fitted effect of over 45% in size; note: potency is the fitted concentration of half-maximal effect
# conditions-used: HTR2A-CHO cells, DOI-induced calcium flux, fluorescence; series mostly up to 61.5 µM
Inconclusive results are not listed. Activity calls are given as the source filed them. Calls come from the whole dose curve.
value-kind: Potency

1) Cc1[nH]cnc1C[C@H]1CCc2c(C)c3ccccc3n2C1=O | 1460 nM (active)
2) CN[C@H]1CC[C@@H](c2ccc(Cl)c(Cl)c2)c2ccc(S(N)(=O)=O)cc21 | inactive
3) CCCCCOC(=O)CCCCC | inactive
4) CCCC1C(CC)=CC(CC)=CN1c1ccccc1 (stereo not given) | inactive

Kindly consider the entry below.
Task: What does the record list as Potency for O=C(O)CN1C(=O)c2cccc3cccc(c23)C1=O ?
Result: inactive

----------
# assay-info: Nuclear factor erythroid 2-related factor 2/antioxidant responsive element (Nrf2/ARE) small molecule agonists: luciferase reporter gene qHTS assay in human keratinocytes (AID 1919969); note: nearly all actives have a fitted effect of over 35% in size
# conditions-used: KeratinoSens HaCaT ARE-luciferase, luminescence, 24 h; series mostly up to 92.4 µM
Inconclusive results are not listed. Activity calls are given as the source filed them. Calls follow the shape of the full dose curve.
// one of true (1) = active, false (0) = inactive, no free text

1) O=C(O)c1ccc(O)c(O)c1 | false (0)
2) Cc1ccccc1N=C(N)N=C(N)N | false (0)

Task: Outcome logged for Cc1ccc(S(=O)(=O)C(I)I)cc1 in this assay:
Result: true (1)

Task: Outcome logged for Nc1ccn([C@@H]2O[C@H](CO)[C@@H](O)[C@@H]2O)c(=O)n1 in this assay:
Result: false (0)

Task: Outcome logged for CCCCc1oc2ccc(NS(C)(=O)=O)cc2c1C(=O)c1ccc(OCCCN(CCCC)CCCC)cc1 in this assay:
Result: false (0)

Task: Outcome logged for NC(=O)c1c(Cl)cccc1Cl in this assay:
Result: false (0)

----------
# target-desc: D(2) dopamine receptor (Homo sapiens) (UniProt P14416)
# Sequence (P14416 whole entry, looked up): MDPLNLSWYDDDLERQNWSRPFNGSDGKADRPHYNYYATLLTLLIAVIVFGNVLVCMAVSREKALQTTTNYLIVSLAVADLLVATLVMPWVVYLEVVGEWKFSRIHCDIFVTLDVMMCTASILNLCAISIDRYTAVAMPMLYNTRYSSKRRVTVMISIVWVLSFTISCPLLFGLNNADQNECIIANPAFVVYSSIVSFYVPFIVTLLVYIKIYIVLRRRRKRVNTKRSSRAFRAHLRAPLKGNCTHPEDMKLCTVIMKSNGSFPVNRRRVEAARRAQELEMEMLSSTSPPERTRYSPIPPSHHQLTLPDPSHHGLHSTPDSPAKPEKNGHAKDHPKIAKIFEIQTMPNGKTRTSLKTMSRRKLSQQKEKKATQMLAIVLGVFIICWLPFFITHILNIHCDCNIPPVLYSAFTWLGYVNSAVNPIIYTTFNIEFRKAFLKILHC
# assay-info: Dopamine D2 receptor (DRD2) small molecule agonists, cell-based qHTS assay (AID 1963594); note: potency is the fitted concentration of half-maximal effect; nearly all actives have a fitted effect of over 35% in size
# conditions-used: HEK293-DRD2 cAMP HTRF, agonist mode, 30 min; series mostly up to 92.4 µM
Records with an inconclusive call do not appear. Activity calls are given as the source filed them. Calls follow the shape of the full dose curve.
value-kind: Potency

Task: What does the record list as Potency for N#C/C(=C1/SC[C@@H](c2ccc(Cl)cc2Cl)S1)n1ccnc1 ?
Result: 26.6 µM (active)

Task: What does the record list as Potency for CC(C)C[C@H]1C(=O)N2CCC[C@H]2[C@]2(O)O[C@](NC(=O)[C@@H]3C=C4c5cccc6[nH]c(Br)c(c56)C[C@H]4N(C)C3)(C(C)C)C(=O)N12 ?
Result: 0.0923 µM (active)

Task: What does the record list as Potency for CC[C@H](C)C(=O)O[C@H]1C[C@H](O)C=C2C=C[C@H](C)[C@H](CC[C@@H](O)C[C@@H](O)CC(=O)O)[C@H]21 ?
Result: 61.1 µM (active)

Task: What does the record list as Potency for CCOc1cccc(-n2cc(C(=O)N3CCN(c4cc(C(=O)O)c5ccccc5c4)CC3)nc2-c2ccc(C)cc2)c1 ?
Result: 65.5 µM (active)

Task: What does the record list as Potency for NC1=NCC2c3ccccc3Cc3ccccc3N12 (configuration not stated) ?
Result: 4.92 µM (active)

Task: What does the record list as Potency for CC(C)[C@H]1CC[C@H](C)C[C@@H]1O ?
Result: 57.9 µM (active)

Task: What does the record list as Potency for O=C1OC2(c3ccccc31)c1ccc(O)c(Br)c1Oc1c2ccc(O)c1Br ?
Result: 15.4 µM (active)
